Just for reference, patent US20050282743A1 is where these values come from.

target_under_test: T1, GST-AIPC PDZ domain 1 (Homo sapiens (Human)), O15018
T1 chain: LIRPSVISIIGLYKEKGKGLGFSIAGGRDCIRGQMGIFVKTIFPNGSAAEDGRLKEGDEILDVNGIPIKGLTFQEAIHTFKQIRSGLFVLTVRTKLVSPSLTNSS
measurement_notes: G assay titration, PDZ 5 ug/ml
reported_endpoint: pKd
Notebook: values listed as pKd are -log10 of the concentration (mol/L).

# get_value(readout='pKd', item= HHLVAQRDIRQFQLQHWLAI (modifications not checked) [noradrenaline transporter] ) 6.22
